assay: in vitro; settings: human
Assignment: determine reported CC50 at 3 days for the given compounds.
Answers are plain numbers, in µM.

Consider the following illustrative entries.
| Compound | CC50 at 3 days (µM) |
| --- | --- |
| C[C@@H]1c2ccccc2CCN1C(=O)c1cc(C2CC2)n2nc(-c3ccc([C@H]4C[C@@H]4NC(=O)NC4CC4)cc3F)cc2n1 | 40.8 |
| C[C@@H]1c2ccccc2CCN1C(=O)c1cc(C2CC2)n2nc(-c3ccc([C@@H]4C[C@H]4c4cc(=O)[nH]o4)cc3F)cc2n1 | 42.5 |
| C[C@@H]1c2ccccc2CCN1C(=O)c1cc(C2CC2)n2nc(-c3ccc([C@H]4C[C@@H]4C(=O)NS(=O)(=O)C4CC4)cc3F)cc2n1 | 55.8 |

Return the recorded CC50 at 3 days value; entry: C[C@@H]1c2ccccc2CCN1C(=O)c1cc(C2CC2)n2nc(-c3ccc([C@H]4C[C@@H]4CO)cc3F)cc2n1
41.8

###

Assignment: determine reported CC50 at 3 days for the given compounds.
experiment: in vitro; conditions: human

Consider the following illustrative entries.
| Compound | CC50 at 3 days |
| --- | --- |
| C[C@@H]1c2ccccc2CCN1C(=O)c1cc(C2CC2)n2nc(-c3ccc([C@H]4C[C@@H]4C(=O)NC4(C)CC4)cc3F)cc2n1 [Compound 20] | > 10 µM |
| C[C@@H]1c2ccccc2CCN1C(=O)c1cc(C2CC2)n2nc(-c3ccc([C@H]4C[C@@H]4C(=O)NS(=O)(=O)C(F)(F)F)cc3F)cc2n1 [Compound 29] | > 100 µM |
| C[C@@H]1c2ccccc2CCN1C(=O)c1cc(C2CC2)n2nc(-c3ccc([C@H]4C[C@@H]4NS(C)(=O)=O)cc3F)cc2n1 [Compound 36] | > 100 µM |

Field: CC50 at 3 days. Fill in for each record below.
1. CC(=O)N[C@H]1C[C@@H]1c1ccc(-c2cc3nc(C(=O)N4CCc5ccccc5[C@H]4C)cc(C4CC4)n3n2)c(F)c1 [Compound 34]
2. C[C@@H]1c2ccsc2CCN1C(=O)c1cc(C2CC2)n2nc(-c3ccc([C@H]4C[C@@H]4C(N)=O)cc3F)cc2n1 (single isomer, unassigned) [Compound 10]
3. C[C@@H]1c2ccccc2CCN1C(=O)c1cc(C2CC2)n2nc(-c3ccc([C@H]4C[C@@H]4C#N)cc3F)cc2n1 [Compound 3]

1: > 100 µM; 2: > 25 µM; 3: > 100 µM

###

assay: in vitro; settings: human
Measurement Name: CC50 at 3 days

Consider the following illustrative entries.
| Molecule | Reported Result |
| --- | --- |
| CCNC(=O)[C@H]1C[C@@H]1c1ccc(-c2cc3nc(C(=O)N4CCc5ccccc5[C@H]4C)cc(C4CC4)n3n2)c(F)c1 [Compound 14] | > 50 µM |
| CNC(=O)[C@H]1C[C@@H]1c1ccc(-c2cc3nc(C(=O)N4CCc5ccccc5[C@H]4C)cc(C4CC4)n3n2)c(F)c1 [Compound 12] | > 100 µM |

// moving on: another record for CC50 at 3 days
Return the recorded CC50 at 3 days value; entry: C[C@@H]1c2ccccc2CCN1C(=O)c1cc(C2CC2)n2nc(-c3ccc([C@H]4C[C@@H]4C(=O)NC4COC4)cc3F)cc2n1 [Compound 19]
> 100 µM
